Source: ChEMBL document CHEMBL1146660

molecular target: M-phase inducer phosphatase 1 (Homo sapiens); assay: Concentration required to inhibit human Cell division cycle 25A activity; Value ranges from […] to […]
Sequence (P30304 whole entry): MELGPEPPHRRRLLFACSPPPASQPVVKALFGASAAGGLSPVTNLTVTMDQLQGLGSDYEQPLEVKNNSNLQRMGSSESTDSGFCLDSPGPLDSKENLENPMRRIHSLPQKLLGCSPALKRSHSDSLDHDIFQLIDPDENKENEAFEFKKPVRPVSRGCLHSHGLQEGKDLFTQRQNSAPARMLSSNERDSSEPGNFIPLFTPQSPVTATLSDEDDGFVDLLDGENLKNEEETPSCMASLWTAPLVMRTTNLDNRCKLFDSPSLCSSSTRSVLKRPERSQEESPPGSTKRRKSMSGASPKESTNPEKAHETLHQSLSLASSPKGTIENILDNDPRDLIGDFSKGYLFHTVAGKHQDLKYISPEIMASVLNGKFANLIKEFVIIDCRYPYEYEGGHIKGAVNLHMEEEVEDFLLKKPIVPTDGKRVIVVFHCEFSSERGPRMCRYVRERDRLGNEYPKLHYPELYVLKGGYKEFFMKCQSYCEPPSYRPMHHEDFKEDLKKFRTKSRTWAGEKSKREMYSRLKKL
MEASUREMENT_TYPE: IC50 (nM)
Write the answer as a number in nM, unit excluded.

// query Form field - read-out: IC50; system: M-phase inducer phosphatase 1 (Homo sapiens); submitted item: C=C1CC[C@H](O)C/C1=C/C=C1\CCC[C@@]2(C)C1CC[C@@H]2[C@H](C)CCCC(C)C (stereo partly specified)
// result 890

###

target: M-phase inducer phosphatase 1 (Homo sapiens); experiment: Concentration required to inhibit human Cell division cycle 25A activity
MEASUREMENT_TYPE: pIC50
Field pIC50 (float): negative decimal logarithm of the concentration in molar.

// query Need pIC50 of CC(C)CCC[C@@H](C)[C@H]1CCC2/C(=C/C(=O)O)CCC[C@@]21C (stereo partly specified) , thanks.
// result 5.26
